# reported z-score; entries follow
- Measurement protocol: DUSP6 inhibitors restoring Erk phosphorylation by chemical complementation, primary imaging in DUSP6-transfected HeLa (AID 609)
- Condition set: HeLa MKP-3 transfected, phospho-Erk imaging KS statistic; measured here: nuclear c-Myc green intensity z-score; at 10 µM; cells stimulated with TPA for 15 min

Recorded z-score, per entry:
COc1ccc(-c2nc3c(Br)c(N)c(Br)cc3o2)cc1 :: -1.44
CCN(CC)CCCN1C(=O)C(=O)/C(=C(/O)c2ccc3c(c2)CC(C)O3)C1c1cccnc1 (stereo not drawn) :: 0.323

Read the next record carefully.
Inquiry: Which z-score value belongs to Cn1c(N)c(C#N)c(C#N)c1-c1ccccc1 ?
Reply text: -0.891
